From: paper PMC7494392

Experimental System: TRPV1 (Rattus norvegicus, UniProt O35433)
Sequence (O35433 whole entry): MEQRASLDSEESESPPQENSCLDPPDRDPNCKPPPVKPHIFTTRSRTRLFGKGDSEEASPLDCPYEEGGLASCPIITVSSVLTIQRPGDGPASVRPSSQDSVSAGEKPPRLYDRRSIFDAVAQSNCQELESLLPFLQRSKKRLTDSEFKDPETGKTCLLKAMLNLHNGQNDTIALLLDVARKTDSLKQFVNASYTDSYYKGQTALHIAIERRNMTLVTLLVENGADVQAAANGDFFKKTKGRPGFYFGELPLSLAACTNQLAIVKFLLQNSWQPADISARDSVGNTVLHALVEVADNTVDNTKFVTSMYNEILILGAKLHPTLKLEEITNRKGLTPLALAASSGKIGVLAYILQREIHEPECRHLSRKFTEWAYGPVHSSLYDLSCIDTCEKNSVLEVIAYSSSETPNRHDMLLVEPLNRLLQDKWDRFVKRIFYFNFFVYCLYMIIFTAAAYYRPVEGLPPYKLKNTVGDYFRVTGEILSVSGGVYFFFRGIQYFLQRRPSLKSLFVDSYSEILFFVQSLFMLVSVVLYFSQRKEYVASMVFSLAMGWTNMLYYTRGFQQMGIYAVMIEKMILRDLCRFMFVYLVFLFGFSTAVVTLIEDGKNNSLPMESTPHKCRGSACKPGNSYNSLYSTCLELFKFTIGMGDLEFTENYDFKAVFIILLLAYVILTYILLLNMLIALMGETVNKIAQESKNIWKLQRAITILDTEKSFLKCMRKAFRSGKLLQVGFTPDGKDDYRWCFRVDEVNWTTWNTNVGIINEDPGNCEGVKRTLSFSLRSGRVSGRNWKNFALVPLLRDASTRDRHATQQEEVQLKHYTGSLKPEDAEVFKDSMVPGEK
Assay Text: Fura-2 calcium imaging in rat DRG neurons
pEC50: −log10 of the molar value.
Observed Property: pEC50

**Query** Data request, read-out pEC50, for C=C(C)[C@@H]1CCC(C)=C[C@H]1c1c(O)cc(CCCCC)cc1O
**Result** 5.00 to 6.00
